Tested on: MCF10A
METHOD_DESCRIPTION: Normal cell line, MCF10A
Format: cell-based
MEASUREMENT_CONTEXT: Homo sapiens, MCF-10A; read-out: Normal Cell Lines, Breast MCF10A
Description: In this experiment, exponentially growing cells were seeded at 1000 cells/well and allowed to attach for 48 h. […] After 10-20 days, cells were fixed and stained with modified Wright-Giemsa stain.
pIC50: −log10 of the molar value.
Catalogue of pIC50 readings, one per entry.
PROPERTY_LABEL: pIC50

>>> numeric_readout("CC1(C)CCC2=C(S1)c1ccccc1C(=O)C2=O")
5.17
>>> numeric_readout("CC1(C)CCSC2=C1C(=O)C(=O)c1ccccc12")
5.20
>>> numeric_readout("CC1(C)CCC2=C(O1)c1ccccc1C(=O)C2=O")
5.24
